# System: HuCCT1 (Biliary Tract Carcinoma)
# Procedure Summary: combination Emax (second highest fraction inhibited in the dose matrix, 72 h); higher = more inhibition; extreme values may be limits of the assay
The reader will find reported combination Emax values listed item by item below.

Given O=C(c1cc(Cc2n[nH]c(=O)c3ccccc23)ccc1F)N1CCN(C(=O)C2CC2)CC1 [Olaparib] + Cc1c2c(nn1C)CSCc1cc(n(C)n1)CSc1cc(c3ccccc3c1)OCCCc1c(C(=O)O)n(C)c3c-2c(Cl)ccc13 [AZD5991] (first compound max 10 µM, 7x7, partner max 1 µM) , state its recorded combination Emax. 0.15

Now give it for CN(CCO)CC[C@H](CSc1ccccc1)Nc1ccc(S(=O)(=O)NC(=O)c2ccc(N3CCC([C@@H](O)c4ccccc4-c4ccc(Cl)cc4)CC3)cc2)cc1S(=O)(=O)C(F)(F)F [AZD4320] + C1CN(CCC1(C(=O)N[C@@H](CCO)C2=CC=C(C=C2)Cl)N)C3=NC=NC4=C3C=CN4 [Capivasertib] (first compound max 1 µM, 7x7, partner max 3 µM) too. 0.121

Follow-up entry: C=CCn1c(=O)c2cnc(Nc3ccc(N4CCN(C)CC4)cc3)nc2n1-c1cccc(C(C)(C)O)n1 [AZD1775] + O=C(c1cc(Cc2n[nH]c(=O)c3ccccc23)ccc1F)N1CCN(C(=O)C2CC2)CC1 [Olaparib] (first compound max 1 µM, partner max 10 µM) 0.818

Input Cc1cc2ncnn2cc1Nc1ncc2c(n1)n(C1CCOCC1)c(=O)n2C [AZD7648] + C=CCn1c(=O)c2cnc(Nc3ccc(N4CCN(C)CC4)cc3)nc2n1-c1cccc(C(C)(C)O)n1 [AZD1775] (first compound max 10 µM, partner max 1 µM) 0.692

Now this one: CN(C)CCCOc1ccc(-c2ccc3ncc4c(c3c2)n(C2CCOCC2)c(=O)n4C)cn1 [AZD0156] + CCN(CCO)CCCOc1ccc2c(Nc3cc(CC(=O)Nc4cccc(F)c4)[nH]n3)ncnc2c1 [AZD2811] (first compound max 1 µM, 7x7, partner max 1 µM) 0.137

====

# Tested on: NUGC-4 (Gastric Carcinoma)
# Procedure Summary: combination Emax (second highest fraction inhibited in the dose matrix, 72 h); higher = more inhibition; extreme values may be limits of the assay
Measure: combination Emax
Number, no unit, nothing else.

CC1(C)CCC(CN2CCN(c3ccc(C(=O)NS(=O)(=O)c4ccc(NCC5CCOCC5)c([N+](=O)[O-])c4)c(Oc4cnc5[nH]ccc5c4)c3)CC2)=C(c2ccc(Cl)cc2)C1 [Venetoclax] + Cc1cc2ncnn2cc1Nc1ncc2c(n1)n(C1CCOCC1)c(=O)n2C [AZD7648] (first compound max 1 µM, 7x7, partner max 10 µM)	0.232

Fill blank: measured combination Emax of the compound C[C@@H]1COCCN1c1cc(C2([S@](C)(=N)=O)CC2)nc(-c2ccnc3[nH]ccc23)n1 [AZD6738] + O=C(c1cc(Cc2n[nH]c(=O)c3ccccc23)ccc1F)N1CCN(C(=O)C2CC2)CC1 [Olaparib] (first compound max 10 µM, 7x7, partner max 10 µM) is ____. 0.551

Here is the next compound: COc1cccc2c1C(=O)c1c(O)c3c(c(O)c1C2=O)C[C@@](O)(C(=O)CO)C[C@@H]3O[C@H]1C[C@H](N)[C@H](O)[C@H](C)O1 [Doxorubicin] + Cc1cc2ncnn2cc1Nc1ncc2c(n1)n(C1CCOCC1)c(=O)n2C [AZD7648] (first compound max 1 µM, 7x7, partner max 10 µM) 0.393
